The reported numbers originate from paper PMC5641094.

TARGET OF ASSAY: T1, His6-tagged p160(20-160) (UniProt Q7TPV4 20-160)
T1 construct: also called His6-p160(20-160); p160(20-160) domain
T1 sequence (looked up): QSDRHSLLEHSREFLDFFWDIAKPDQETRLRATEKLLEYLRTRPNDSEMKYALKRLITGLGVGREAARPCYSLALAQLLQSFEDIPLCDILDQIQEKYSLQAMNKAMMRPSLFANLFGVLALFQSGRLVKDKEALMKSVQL
ASSAY NAME: ELISA; competition ELISA: plate coated with Prep1(45-155) (0.1 uM); His6-tagged p160(20-160) at 0.25 uM pre-incubated with peptides at 0.001-10 uM; detection with anti-His HRP-conjugated antibody
CONDITION CONTEXT: both partners purified

BINDER	IC50 [nM]
Ac-KQAIYRHPLFPLLALLFEK-NH2 (Prep1 (Pbx regulating protein 1), stretch of the HR1 domain, named residues 54-72; Brought into L6 cells in the presence of liposomes for the cell experiments; source: synthetic peptide (Fmoc solid phase, RP-HPLC purified)) [Prep1(54-72) peptide]	200
